src = patent US20090258005A1

Target: T1, EQR (Her017P)
T1 construct: also called HER2 EQR-Fc; HER2 EQR DIMER
Experiment: ELISA, soluble scFv on EQR
QUANTITY: binding result

>  <BINDER>
S1R3A1_BMV_1F3 (scFv, V domains shown, scFv, soluble from bacterial periplasm in the screen; also called Her2_S1R3A1_BMV_1F3) VH: EVQLVESGEGLVKPGGSLRLSCTASGFTFRSYSLNWVRQAPGQGLEWVSSISSTSTYIYYADSVKGRFTISRDDAKNTLYLQMNSLRAEDTAAYYCVRLGSGGGYFPDYWGRGTLVTVSS VL: SSELTQDPAVSVALGQTVRITCQGDSLRSYYASWYQQKPGQAPVLVIYGKNNRPSGIPDRFSGSSSGNTASLTITGAQAEDEADYYCNSRDSSGNHVVFGGGTKLTVL

>  <binding result>
binds

$$$$
>  <BINDER>
S1R3A1_BMV_1G4 (scFv, V domains shown, scFv, soluble from bacterial periplasm in the screen; also called Her2_S1R3A1_BMV_1G4) VH: QVQLVESGAEVKKPGASVKVSCKASGYTFTSYDINWVRQAPGQRLEWMGWINAGNGNTKYSQKFQGRVTITRDTSASTAYMELRSLRSDDTAVYYCARGRSYGHPYYFDYWGQGTLVTVSS VL: QSVLTQPASVSGSPGQSITISCTGTSSDVGGYNYVSWYQQHPGKAPKLMIYEGSKRPSGVSNRFSGSKSGNTASLTISGLQAEDEADYYCSSYTTRSTRVFGGGTKLTVL

>  <binding result>
no binding

$$$$
>  <BINDER>
S1R3B1_BMV_1A1 (scFv, V domains shown, scFv, soluble from bacterial periplasm in the screen; also called Her2_S1R3B1_BMV_1A1) VH: EVQLVQSGAEVKEPGASVKVSCKASGYDFSNYGFSWVRQAPGQGLEWMGWISSYNGYTNYAQRLQGRVTMTTDTSTSTAYMELRSLRSDDTAVYYCARDRGLGNWYFDLWGQGTLVTVSS VL: QSVLTQPASVSGSPGQSITISCTGTSSDVGGYNYVSWYQQHPGKAPKLMIYEGSKRPSGVSNRFSGSKSGNTASLTISGLQAEDEADYYCSSYTTRSTRVFGGGTKLTVL

>  <binding result>
binds

$$$$
>  <BINDER>
S1R3B1_BMV_1H9 (scFv, V domains shown, scFv, soluble from bacterial periplasm in the screen; also called Her2_S1R3B1_BMV_1H9) VH: QVQLQESGAGLVKPSGTLSLTCAVSGGSISSGNWWSWVRQPPGKGLEWIGEISHSGSTNYNPSLKSRVTISVDKSKNQFSLNLSSVTAADTAVYYCARVRGTVGDTRGPDYWGQGTLVTVSS VL: SSELTQDPAVSVALGQTVRITCQGDSLRSYYASWYQQKPGQAPVLVIYGKNNRPSGIPDRFSGSSSGNTASLTITGAQAEDEADYYCNSRDSSGNHVVFGGGTKLTVL

>  <binding result>
no binding

$$$$
>  <BINDER>
S1R3C1_BMV_1H11 (scFv, V domains shown, scFv, soluble from bacterial periplasm in the screen; also called Her2_S1R3C1_BMV_1H11) VH: GVQLVESGGGLVKPGGSLRLSCAASGFTFSSYNMNWVRQAPGKGLEWVSAISGSGGSTYYADSVTGRFTISRDNSKNTLYLQMNSLRAEDTAVYYCAKDTSGWYGDGMDVWGRGTLVTVSS VL: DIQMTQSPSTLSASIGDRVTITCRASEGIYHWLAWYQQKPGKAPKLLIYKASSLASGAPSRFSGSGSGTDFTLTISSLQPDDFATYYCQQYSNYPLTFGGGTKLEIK

>  <binding result>
no binding

$$$$

Measured binding result, S1R3B1_BMV_1H5 (scFv, V domains shown, scFv, soluble from bacterial periplasm in the screen; also called Her2_S1R3B1_BMV_1H5) VH: QVQLQESGGGVVQPGGSLRLSCAASGFTFSGYGMHWVRQAPGKGLEWVASVRNDGSNTYYTDSVKDRFTISRDNTKNTLYLQMNSLRAEDTAVYYCAKSRRVMYGTSYYFDYWGRGTLVTVSS VL: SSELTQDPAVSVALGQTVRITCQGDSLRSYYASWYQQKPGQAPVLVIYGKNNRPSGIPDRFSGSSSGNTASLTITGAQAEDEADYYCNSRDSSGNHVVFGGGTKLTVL : no binding

Kindly note the recorded binding result for S1R3B2_BMV_1G2 (scFv, V domains shown, scFv, on phage in the screen; also called Her2_S1R3B2_BMV_1G2) VH: QVQLVQSGAEVKKPGSSVKVSCKASGYTFTSYGISWVRQAPGQGLEWMGWISAYNGNTNYAQKLQGRVTMTTDTSTSTAYMELRSLRSDDTAVYYCARVPGVSGSYPDYYYMDVWGKGTLVTVSS VL: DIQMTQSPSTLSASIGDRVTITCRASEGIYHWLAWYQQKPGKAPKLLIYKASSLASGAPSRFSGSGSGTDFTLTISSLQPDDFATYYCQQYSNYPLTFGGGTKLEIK , which is binds

Sample S1R3C1_CS_1D3 (scFv, V domains shown, scFv, on phage in the screen; also called Her2_S1R3C1_CS_1D3) VH: QVQLQESGPGLVKPSQTLSLTCGISGDSVSSNSAAWNWIRQSPTRGLEWLGRTYYRSSWYHNYAPSMNSRLTIIADTSKNQFSLQLNSVTPEDTAVYYCASGWAFDVWGRGTLVTVSS VL: QSVLTQPPSASGSPGQSVTISCTGTSSDVGAYDFVSWYQQHPGKAPKLMIYEVNKRPSGVPDRFSGSKSGNTASLTVSGLQAEDEADYYCSSYAGSKNLLFGGGTKLTVL ; binding result observed: binds
